- System: PC3
- PROTOCOL_TEXT: PrestoBlue Cell Viability assay, 72 h
- Format: cell-based, human
- CONDITION: read-out: IC50 PC3, 72 h incubation
MEASUREMENT_KIND: IC50 (µM)
Answer with a number only, understood to be in µM.

Examples from the recorded data:
COMPOUND	UNIT_SPEC	NUMBER
N.N.[Cl][Pt][Cl] [Cisplatin]	µM	6.7
COc1ccc(C[C]2([Ti+2][C]3(Cc4ccc(OC)cc4)C=CC=C3)C=CC=C2)cc1.[Cl-].[Cl-]	µM	58.1

Kindly consider the entry below.
For `CC(=O)OC[C@H]1O[C@@H]([S-])[C@H](OC(C)=O)[C@@H](OC(C)=O)[C@@H]1OC(C)=O.CCP(CC)CC.[Au+]` the compound record lists IC50 as 3.6
